Entries and their IC50 values follow.
System: HeLa
Assay: Inhibition of cell growth, HeLa cells
Type: cell-based
Settings: Homo sapiens, 72 h, three days at 37° C., microscope assessment, read-out: IC50 value (50% inhibition of cell growth)
Answer in µg/mL, number only, no unit symbol.

>>> df
               compoundstring  assayvalue
0  COC(=O)Cc1nnc2ccc(Cl)cc2n1         160

// switching to the query molecule
For COC(=O)Cc1nnc2ccc(Cl)c(N)c2n1 on HeLa, measured IC50 was 50
